# protocol-summary: Particle size distribution (d10, d50, d90) by laser diffraction
# Format: physicochemical
# run-parameters: spray dried amorphous ipatasertib monohydrochloride powder
Structures can show the parent of a compound that is named as a salt.
measurement-name: Particle size d50 (μm)
Entry rule: numbers only, all in μm.

I'd like to know its Particle size d50. The compound in question is CC(C)NC[C@@H](C(=O)N1CCN(c2ncnc3c2[C@H](C)C[C@H]3O)CC1)c1ccc(Cl)cc1 [Composition 140210412, ipatasertib monohydrochloride]
46

I'd like to know its Particle size d50. The compound in question is CC(C)NC[C@@H](C(=O)N1CCN(c2ncnc3c2[C@H](C)C[C@H]3O)CC1)c1ccc(Cl)cc1 [6A′, ipatasertib monohydrochloride]
3.8

I'd like to know its Particle size d50. The compound in question is CC(C)NC[C@@H](C(=O)N1CCN(c2ncnc3c2[C@H](C)C[C@H]3O)CC1)c1ccc(Cl)cc1 [Composition 140110401, ipatasertib monohydrochloride]
31
